- assay_target: Anti-CD28 Fab (SEQ ID NOs: 202, 203)
- Sequence (VH, as listed by the source, chain 1 of 2): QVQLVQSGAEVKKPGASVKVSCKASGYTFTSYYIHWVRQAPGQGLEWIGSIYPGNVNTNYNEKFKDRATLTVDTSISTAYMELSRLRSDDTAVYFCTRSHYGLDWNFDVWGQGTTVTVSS
- Sequence (VL, as listed by the source, chain 2 of 2): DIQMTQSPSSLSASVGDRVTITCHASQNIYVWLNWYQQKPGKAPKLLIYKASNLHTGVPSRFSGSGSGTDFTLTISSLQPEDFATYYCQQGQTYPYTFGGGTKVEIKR
- test_details: phage binding ELISA on captured Fab;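 also: clonal phage supernatants added briefly to wells pre-incubated with CD28 antigen or with blocking buffer only, then washed, bound phage read by ELISA using HRP-coupled anti-M13 antibody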
Records here are stratified by Anti-CD28 Fab (SEQ ID NOs: 202, 203) signal; strata: group 1 = under 0.6, group 2 = from 0.6 up to 0.8, group 3 = 0.8 and over

Recorded results for 5 binders are shown here.
YCEGHFGMYMSKCL [Phage-833]	group 2
YCDGHTGVYKWKCI [Phage-827]	group 2
YCAGHASEYLQKCL [Phage-881]	group 1
YCEGHSAIYIAKCM [Phage-772]	group 3
YCEGHMQWYMAKCL [Phage-877]	group 1

Tag the class for YCEGHSRQYMEKCM [Phage-852]
group 2

Note: place this binder into its band. Item: YCEGHKKEYMLKCL [Phage-863]
group 1
